Target: human SSTR5 (Homo sapiens (Human), UniProt P35346)
Sequence (P35346 whole entry): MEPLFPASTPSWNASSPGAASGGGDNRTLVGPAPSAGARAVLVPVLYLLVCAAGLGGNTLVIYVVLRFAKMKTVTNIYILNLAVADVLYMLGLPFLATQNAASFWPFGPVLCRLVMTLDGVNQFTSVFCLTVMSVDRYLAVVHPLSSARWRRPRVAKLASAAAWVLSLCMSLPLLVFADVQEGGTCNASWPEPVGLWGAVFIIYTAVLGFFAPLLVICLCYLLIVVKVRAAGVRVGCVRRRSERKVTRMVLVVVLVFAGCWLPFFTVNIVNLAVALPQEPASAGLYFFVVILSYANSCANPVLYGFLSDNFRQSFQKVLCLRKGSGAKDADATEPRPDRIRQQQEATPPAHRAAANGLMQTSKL
Experiment: Radioligand binding assay, CHO cell membranes expressing recombinant human SSTR5
quantity kind: Ki

These recorded examples may help you get a feel for the data.
compound: Cc1ncc(C(C)(C)NC(=O)[C@H]2[C@@H]3CNC[C@@H]32)c2ccccc12 [Example 80]
Ki: > 9.86 µM
--
compound: Cc1cc2cccnc2c(C(C)(C)NC(=O)[C@H]2[C@@H]3CNC[C@@H]32)n1 [Example 78]
Ki: > 9.86 µM
--
compound: Cn1nc(C(C)(C)NC(=O)[C@H]2[C@@H]3CNC[C@@H]32)c2ccccc21 [Example 49]
Ki: > 9.86 µM
--
compound: Cc1ccccc1OCC(C)(C)NC(=O)[C@H]1[C@@H]2CNC[C@@H]21.Cl [Example 40]
Ki: > 9.85 µM
--
compound: Cc1cccnc1OCC(C)(C)NC(=O)[C@H]1[C@@H]2CNC[C@@H]21 [Example 47]
Ki: > 9.85 µM

Form field Ki, entry Cc1cccn2c(C(C)(C)NC(=O)[C@H]3[C@@H]4CNC[C@@H]43)ncc12.Cl [Example 126] : > 9.86 µM

Form field Ki, entry CC(C)(COc1nccc2ccccc12)NC(=O)[C@H]1[C@@H]2CNC[C@@H]21 [Example 56] : > 9.85 µM

Form field Ki, entry CC(C)(NC(=O)[C@H]1[C@@H]2CNC[C@@H]21)c1nc2ccc(Cl)cc2[nH]1.Cl [Example 11] : > 9.85 µM

====

Target: human Somatostatin 4 receptor (SSTR4) (Homo sapiens (Human), UniProt P31391)
Sequence (P31391 whole entry): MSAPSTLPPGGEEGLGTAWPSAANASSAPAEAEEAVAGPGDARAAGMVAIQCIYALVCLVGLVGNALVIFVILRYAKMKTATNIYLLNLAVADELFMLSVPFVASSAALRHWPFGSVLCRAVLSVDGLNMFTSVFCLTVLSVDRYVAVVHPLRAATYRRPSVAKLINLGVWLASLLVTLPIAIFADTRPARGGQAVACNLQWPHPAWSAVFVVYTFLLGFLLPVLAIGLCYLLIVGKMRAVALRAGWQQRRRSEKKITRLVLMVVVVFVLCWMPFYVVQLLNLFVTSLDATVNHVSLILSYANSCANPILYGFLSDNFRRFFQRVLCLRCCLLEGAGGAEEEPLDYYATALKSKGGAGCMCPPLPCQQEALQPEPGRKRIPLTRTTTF
Assay: cAMP assay with human somatostatin 4 receptor (hSSTR4 expressing H4 cells)
Assay type: cell-based
Settings: cAMP assay, read-out: SSTR4 agonism EC50
Recorded pEC50, one value per entry.
// field semantics: pEC50 = negative decimal log of concentration (mol/L)

These recorded examples may help you get a feel for the data.
compound: CC(C)(NC(=O)[C@H]1[C@@H]2CNC[C@@H]21)c1nc(C#N)c2ccccn12 [Example 132]
quantity kind: pEC50
measurement: 7.14
--
compound: Cc1cccn2c(C(C)(C)NC(=O)[C@H]3[C@@H]4CNC[C@@H]43)cnc12 [Example 150]
quantity kind: pEC50
measurement: 9.05
--
compound: CC(C)(NC(=O)[C@H]1[C@@H]2CNC[C@@H]21)c1cnc2ccccn12.Cl [Example 20]
quantity kind: pEC50
measurement: 8.07

Alright, here's another compound for you.
Form field pEC50, entry CC(C)(COc1cccnc1C(F)(F)F)NC(=O)[C@H]1[C@@H]2CNC[C@@H]21.Cl [Example 18] : 7.69

====

Target: human Somatostatin 4 receptor (SSTR4) (Homo sapiens (Human))
Test: cAMP assay with human somatostatin 4 receptor (hSSTR4 expressing H4 cells)
Format: cell-based
Conditions: cAMP assay, read-out: SSTR4 agonism EC50
Recorded log10 EC50, one value per entry.
In our notation, the value equals log10 of EC50 in nM.

compound: Cc1cccn2c(C(C)(C)NC(=O)[C@H]3[C@@H]4CNC[C@@H]43)nnc12
log10 EC50: 0.60
--
compound: Cc1nc(C(C)NC(=O)[C@H]2[C@@H]3CNC[C@@H]32)c2ccccc2n1 (single isomer, unassigned) [Example 164]
log10 EC50: 3.82
--
compound: Cc1ccnnc1OCC(C)(C)NC(=O)[C@H]1[C@@H]2CNC[C@@H]21.Cl
log10 EC50: 1.82

log10 EC50 on human Somatostatin 4 receptor (SSTR4) (Homo sapiens (Human)) for Cn1nc(C(C)(C)NC(=O)[C@H]2[C@@H]3CNC[C@@H]32)c2cccc(F)c21 is -0.40

log10 EC50 on human Somatostatin 4 receptor (SSTR4) (Homo sapiens (Human)) for Cc1ccc(C(C)(C)NC(=O)[C@H]2[C@@H]3CNC[C@@H]32)n2ccnc12 is 1.04

log10 EC50 on human Somatostatin 4 receptor (SSTR4) (Homo sapiens (Human)) for Cc1ccccc1OCC(C)(C)NC(=O)[C@H]1[C@@H]2CNC[C@@H]21.Cl is 0.70

log10 EC50 on human Somatostatin 4 receptor (SSTR4) (Homo sapiens (Human)) for Cn1nc(C(C)(C)NC(=O)[C@H]2[C@@H]3CNC[C@@H]32)c2c(F)cccc21 is 0.20

log10 EC50 on human Somatostatin 4 receptor (SSTR4) (Homo sapiens (Human)) for Cc1nc(C(C)NC(=O)[C@H]2[C@@H]3CNC[C@@H]32)c2cccc(C)c2n1 (single isomer, unassigned) [Example 166] is 3.15

log10 EC50 on human Somatostatin 4 receptor (SSTR4) (Homo sapiens (Human)) for Cc1nc(C(C)NC(=O)[C@H]2[C@@H]3CNC[C@@H]32)c2cccc(C)c2n1 (single isomer, unassigned) [Example 165] is 1.95

log10 EC50 on human Somatostatin 4 receptor (SSTR4) (Homo sapiens (Human)) for Cl.Cn1nccc1OCC(C)(C)NC(=O)[C@H]1[C@@H]2CNC[C@@H]21 is 1.89

log10 EC50 on human Somatostatin 4 receptor (SSTR4) (Homo sapiens (Human)) for Cc1cc(Cl)ccc1OCC(C)(C)NC(=O)[C@H]1[C@@H]2CNC[C@@H]21.Cl is 0.89

log10 EC50 on human Somatostatin 4 receptor (SSTR4) (Homo sapiens (Human)) for CC(C)(NC(=O)[C@H]1[C@@H]2CNC[C@@H]21)c1nc(C(F)(F)F)c2c(F)cccn12 is 1.50

log10 EC50 on human Somatostatin 4 receptor (SSTR4) (Homo sapiens (Human)) for CC(C)(NC(=O)[C@H]1[C@@H]2CNC[C@@H]21)C1COc2ccccc21 (stereo partly drawn) [Example 173] is 2.37

log10 EC50 on human Somatostatin 4 receptor (SSTR4) (Homo sapiens (Human)) for Cc1cc(C)c(C(C)(C)NC(=O)[C@H]2[C@@H]3CNC[C@@H]32)cn1 is 0.96

log10 EC50 on human Somatostatin 4 receptor (SSTR4) (Homo sapiens (Human)) for C[C@H](NC(=O)[C@H]1[C@@H]2CNC[C@@H]21)c1cccc2ccccc12 is 1.03

====

Target: human Somatostatin 4 receptor (SSTR4) (Homo sapiens (Human), UniProt P31391)
Test: cAMP assay with human somatostatin 4 receptor (hSSTR4 expressing H4 cells)
Type: cell-based
Details: cAMP assay, read-out: SSTR4 agonism EC50
quantity kind: pEC50
// field semantics: pEC50 = negative decimal log of concentration (mol/L)

Form field pEC50, entry CC(C)(COc1ccccc1C1CC1)NC(=O)[C@H]1[C@@H]2CNC[C@@H]21 : 8.24

Form field pEC50, entry Cc1cc2ccccc2c(C(C)(C)NC(=O)[C@H]2[C@@H]3CNC[C@@H]32)n1.Cl : 9.40

Form field pEC50, entry CC(C)(NC(=O)[C@H]1[C@@H]2CNC[C@@H]21)C1CCc2ccccc2O1.Cl (stereo partly drawn) : 7.95

Form field pEC50, entry CC(C)(NC(=O)[C@H]1[C@@H]2CNC[C@@H]21)c1cc2ccccc2cn1 : 7.33

Form field pEC50, entry CC(C)(COc1ncccc1C(F)(F)F)NC(=O)[C@H]1[C@@H]2CNC[C@@H]21 : 8.62

====

Molecular target: human Somatostatin 4 receptor (SSTR4) (Homo sapiens (Human), UniProt P31391)
Assay: cAMP assay with human somatostatin 4 receptor (hSSTR4 expressing H4 cells)
Type: cell-based
Conditions: cAMP assay, read-out: SSTR4 agonism EC50
quantity kind: EC50 (nM)
API: value field is a number in nM; no unit string.

These recorded examples may help you get a feel for the data.
molecule: Cc1cccn2c(C(C)(NC(=O)[C@H]3[C@@H]4CNC[C@@H]43)C3CC3)ncc12 (stereo partly shown)
units symbol: nM
measurement: 9.9

molecule: Cc1cncnc1OCC(C)(C)NC(=O)[C@H]1[C@@H]2CNC[C@@H]21
units symbol: nM
measurement: 142

molecule: Cc1cc(I)ccc1OCC1(NC(=O)[C@H]2[C@@H]3CNC[C@@H]32)CC1
units symbol: nM
measurement: 238

molecule: CC(C)(NC(=O)[C@H]1[C@@H]2CNC[C@@H]21)c1nn(C2CCOCC2)c2ccccc12
units symbol: nM
measurement: 102

molecule: Cc1cc(C2CC2)ccc1OCC(C)(C)NC(=O)[C@H]1[C@@H]2CNC[C@@H]21
units symbol: nM
measurement: 29.8

Form field EC50, entry CC(C)(COc1cncc2ccccc12)NC(=O)[C@H]1[C@@H]2CNC[C@@H]21 : 30.9

Form field EC50, entry CCc1ccccc1OCC(C)(C)NC(=O)[C@H]1[C@@H]2CNC[C@@H]21.Cl : 3

Form field EC50, entry CC(C)(NC(=O)[C@H]1[C@@H]2CNC[C@@H]21)c1ccccc1 : 179

Form field EC50, entry CC(C)(NC(=O)[C@H]1[C@@H]2CNC[C@@H]21)c1c(Cl)nc2sccn12 : 143

Form field EC50, entry CCn1nc(C(C)(C)NC(=O)[C@H]2[C@@H]3CNC[C@@H]32)c2ccccc21 : 3.6

Reference source: patent US9789082B2
